tested on: H460; test: Cell viability assay (CellTiterGlo), H460; type: cell-based; conditions: Homo sapiens, NCI-H460; H460, origin NSCLC; 72 h
ASSAY_METRIC: pIC50
Scale for pIC50: -log10 of concentration given in mol/L; no unit attached.

For reference, reported pIC50 for CC(C)C[C@H](NC(=O)[C@H](Cc1ccccc1)NC(=O)c1cnccn1)B(O)O [Bortezomib, bortezomib] stands at 7.80

====

system: A375; assay: Cell viability assay (CellTiterGlo), A375; type: cell-based; conditions: Homo sapiens, A-375; A375, origin Skin; 72 h
ASSAY_METRIC: IC50
Quick note: number first, unit second.

Short answer on A375 for `CC(C)C[C@H](NC(=O)[C@H](Cc1ccccc1)NC(=O)c1cnccn1)B(O)O` , IC50: 8.5 nM
